Experiment: Lipophilicity via RP-HPLC
Format: physicochemical
Conditions: PHE column
Decide by ϕ0: equal to or exceeding 0.9 means criterion met, less means criterion not met.

INSERT INTO results (molecule, category_label) VALUES
  ('O=C(O)c1c(O)cccc1O [2,6-DHB, 2,6-dihydroxybenzoic acid]', 'criterion met'),
  ('O=C(O)c1cccc(O)c1O [2,3-DHB, 2,3-Dihydroxybenzoic acid]', 'criterion met'),
  ('O=C(O)c1ccc(O)cc1O [2,4-DHB, 2,4-Dihydroxybenzoic acid]', 'criterion met'),
  ('O=C(O)c1cc(O)c(O)c(O)c1 [3,4,5-THB, 3,4,5-trihydroxybenzoic acid]', 'criterion not met'),
  ('O=C(O)c1cc(O)cc(O)c1 [3,5-DHB, 3,5-dihydroxybenzoic acid]', 'criterion not met'),
  ('O=C(O)c1ccc(O)c(O)c1 [3,4-DHB, 3,4-dihydroxybenzoic acid]', 'criterion not met');
